The reported numbers originate from the supplement of paper PMC12042874.

# test.summary: amyloid nucleation score (Sup35N fusion, yeast selection) (log enrichment); library NNK3; higher = more nucleation; inactive = no reads after selection;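 note: zero at mode of non-aggregating sequences after 7 days selection at 30°C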
readout.type: amyloid nucleation score

Some solved cases for reference:
- substance: "MLLCDKFVVCTCIGVQVYSY"
  experimental.value: 2.19
- substance: "AVGLRRPLCMYF"
  experimental.value: "inactive"
- substance: "RCYVRFSRSRVVHIMLVYMP"
  experimental.value: "inactive"
- substance: "RFGALVTLVFVCYHWNRPTA"
  experimental.value: 0.753
- substance: "TGDGTWS"
  experimental.value: "inactive"
- substance: "SSGSPFNCWHSLHCSSRPFK"
  experimental.value: "inactive"
- substance: "GGSFKVDNPKVTRAWISFFS"
  experimental.value: 0.802
- substance: "FKQIVKTSFNLCFFIRCKRT"
  experimental.value: "inactive"

Give me measured amyloid nucleation score, please, for this substance: THYEVWGLT inactive

Give me measured amyloid nucleation score, please, for this substance: CADFFQDCAHKIFKNNRITG inactive

Give me measured amyloid nucleation score, please, for this substance: MLLCMILPK 2.26

Give me measured amyloid nucleation score, please, for this substance: QVCFQSWDASRSRYRHRLKR 0.625

Give me measured amyloid nucleation score, please, for this substance: RSHGVLNLILCSPFLSDTGQ 2.78
